TEST_DETAILS: Dissolution time of resin in solvent until the solution is clear (base for coating materials)
Assay type: physicochemical
APPLIED_CONDITIONS: 45% resin, magnetic stirring, time when solution becomes clear and no deposit is found, rosin modified ester resin
ENDPOINT_LABEL: 45% resin (dissolution time at 80 °C, min)

Query 45% resin (dissolution time at 80 °C, min) for CCCCCCCCCCCC(=O)OCCCCCC [LAOEs, hexyl laurate]
>60 min

Answer with reported 45% resin (dissolution time at 80 °C, min) of CCCCCCCCC(=O)OC [PAOMe, methylpelargonate]
15 min

Identify measured 45% resin (dissolution time at 80 °C, min) associated with CCCCCCCCC(=O)OCC(CC)CCCC (stereo not drawn) [PAOEtEs, 2-ethyl-hexyl pelargonate]
50 min

Complete the entry with 45% resin (dissolution time at 80 °C, min) for CCCCCCCCOC(=O)CCCCC [CAOOt, octyl caproate]
>60 min

Give the measured 45% resin (dissolution time at 80 °C, min) for CCCCCCCCC(=O)OC(C)C [PAOiPr, isopropyl pelargonate]
13 min

Quote 45% resin (dissolution time at 80 °C, min) reported for CCCCCCCCCCCC(=O)OCCCCCCCC [LAOOt, octyl laurate] please.
>60 min

For the compound CCCCCCCCC(=O)OCCCC [PAOBu, butylpelargonate] , report 45% resin (dissolution time at 80 °C, min).
13 min

Check the records and state 45% resin (dissolution time at 80 °C, min) for CCCCCCCCCCCC(=O)OC(C)C [LAOiPr, isopropyl laurate]
>60 min

Supply 45% resin (dissolution time at 80 °C, min) value. Item: CCCCCC(=O)OCC(CC)CCCC (stereo not drawn) [CAOEtEs, 2-ethyl-hexyl caproate]
>60 min

Return reported 45% resin (dissolution time at 80 °C, min). Input compound: CCCCCCCCCCCCCCCC(=O)OCC(CC)CCCC (stereo not drawn) [Solvent 7129, 2-ethylhexyl palmitate]
>60 min

Indicate its recorded 45% resin (dissolution time at 80 °C, min); the compound in question is CCCCCC(=O)OCCCC [CAOBu, butyl caproate]
>60 min

For CCCCCCOC(=O)CCCCC [CAOEs, hexyl caproate] , write its 45% resin (dissolution time at 80 °C, min).
>60 min

Note down 45% resin (dissolution time at 80 °C, min) recorded for CCCCCCCCCCCC(=O)OCCCC [LAOBu, butyl laurate]
>60 min

Please report 45% resin (dissolution time at 80 °C, min) for the following compound: CCCCCCCCCCCC(=O)OCC(CC)CCCC (stereo not drawn) [LAOEtEs, 2-ethyl-hexyl laurate]
>60 min

Provide 45% resin (dissolution time at 80 °C, min) value for the following compound: CCCCCC(=O)OC(C)C [CAOiPr, isopropyl caproate]
>60 min
